# target-of-assay: Human NMT1 (HsNMT1) (Homo sapiens)
# measurement-description: biochemical
Checkbox rule: IC50 lower than 4 nM = T; IC50 not lower than 4 nM = F.

Please review the entries below; each comes with its answer.
> print(dat)
                                   compound  class.assignment
1  COc1cnc(N2CCCNCC2)nc1N1CC(C(=O)NC(C)c2c(C)nc3ccccn23)C1 (centres unmarked)                 F
2  CN1CCCN(c2ncc(Cl)c(N3CC(C(=O)NC(C)(C)c4cnc5ccccn45)C3)n2)CC1                 T
3  C[C@@H]1CN(c2ncc(Cl)c(N3CC(C(=O)NC(C)(C)c4cnc5ccccn45)C3)n2)CCN1                 T
4  CC[C@H]1CNCCN1c1ncc(Cl)c(N2CC(C(=O)N(C)C(C)(C)c3cnc4ccccn34)C2)n1                 F

Lab note: next compound to report on.
In: API: query returns whether the compound falls strictly under 4 nM in IC50. Query: C[C@H]1CN(c2ncc(Cl)c(N3CC(C(=O)NC(C)(C)c4cnc5ccccn45)C3)n2)C[C@H](C)N1C
Out: F

* * *

# System: Plasmodium falciparum 3D7
# measurement-description: SYBR Green assay, Plasmodium falciparum strain 3D7
# Type: cell-based
# study-conditions: P. falciparum strain 3D7, 96 h incubation, read-out: Pf EC50 strain 3D7
List of EC50 values.
The answer is to be given in nM; state only the numeric part.

// below: answered molecules
> print(dat)
                                   molecule            target.of.assay  readout.units  endpoint.result
1  CN1CCC(N(C)c2ncc(F)c(N3CC(C(=O)NC(C)(C)c4cnc5ccccn45)C3)n2)C1 (stereo not shown) [Example 58]  Plasmodium falciparum 3D7             nM              410
2  C[C@H]1CN(c2ncc(Cl)c(N3CC(C(=O)NC(C)(C)c4cnc5ccccn45)C3)n2)C[C@H](C)N1C [Example 95]  Plasmodium falciparum 3D7             nM              150
3  C[C@H]1CN(c2ncc(Cl)c(N3CC(C(=O)NC(C)(C)c4cnc5ccccn45)C3)n2)CCN1C [Example 83]  Plasmodium falciparum 3D7             nM              150

In: Entry under review: C[C@@H]1CN(c2ncc(F)c(N3CC(C(=O)NC(C)(C)c4cnc5ccccn45)C3)n2)[C@@H](C)CN1C [Example 111] . Reported EC50?
Out: 450

* * *

# target-of-assay: Plasmodium vivax (Pv) NMT (Plasmodium vivax (strain Salvador I), UniProt A5K1A2)
# Sequence (A5K1A2 1-410): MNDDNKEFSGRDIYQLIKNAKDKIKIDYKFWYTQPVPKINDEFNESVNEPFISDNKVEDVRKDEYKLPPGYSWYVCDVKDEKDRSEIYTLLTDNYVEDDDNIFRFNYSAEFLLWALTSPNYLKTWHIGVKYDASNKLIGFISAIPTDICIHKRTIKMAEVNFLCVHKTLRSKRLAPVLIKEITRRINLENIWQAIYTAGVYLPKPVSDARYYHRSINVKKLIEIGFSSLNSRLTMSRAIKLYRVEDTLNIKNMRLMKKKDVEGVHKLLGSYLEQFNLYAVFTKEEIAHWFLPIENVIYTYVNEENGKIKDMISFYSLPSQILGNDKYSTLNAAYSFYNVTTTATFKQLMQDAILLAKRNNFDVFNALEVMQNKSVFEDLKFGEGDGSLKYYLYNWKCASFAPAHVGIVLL
# measurement-description: biochemical
Checkbox rule: IC50 lower than 7 nM = Met; IC50 not lower than 7 nM = Not met.

Please review the entries below; each comes with its answer.
> print(dat)
                                   compound  class.assignment
1  C[C@H]1CN(c2ncc(Cl)c(N3CC(C(=O)NC(C)(C)c4cnc5ccccn45)C3)n2)CCN1C           Not met
2  C[C@@H]1CN(c2ncc(Cl)c(N3CC(C(=O)NC(C)(C)c4cnc5ccccn45)C3)n2)C[C@@H](C)N1C           Not met
3  COCC1CN(c2ncc(Cl)c(N3CC(C(=O)NC(C)(C)c4cnc5ccccn45)C3)n2)CCN1C (stereo not shown)           Not met
4  COc1cnc(N2CCCN(C)CC2)nc1N1CC(C(=O)NC(C)(C)c2cnc3ccccn23)C1               Met
5  CC1CN(c2ncc(F)c(N3CC(C(=O)NC(C)(C)c4cnc5ccccn45)C3)n2)C[C@H](C)N1 (stereo partly shown)           Not met

In: API: query returns whether the compound falls strictly under 7 nM in IC50. Query: COc1cnc(N2CCN[C@H](C)C2)nc1N1CC(C(=O)NC(C)(C)c2cnc3ccccn23)C1
Out: Met

In: API: query returns whether the compound falls strictly under 7 nM in IC50. Query: CC(C)(NC(=O)C1CN(c2nc(N3CCNCC3)ncc2Cl)C1)c1cnc2ccccn12
Out: Met

In: API: query returns whether the compound falls strictly under 7 nM in IC50. Query: C[C@@H]1CN(c2ncc(F)c(N3CC(C(=O)NC(C)(C)c4cnc5ccccn45)C3)n2)C[C@H](C)N1C
Out: Not met

In: API: query returns whether the compound falls strictly under 7 nM in IC50. Query: CC(NC(=O)C1CN(c2nc(N3CCNCC3)ncc2F)C1)c1cnc2ccccn12 (stereo not shown)
Out: Not met

In: API: query returns whether the compound falls strictly under 7 nM in IC50. Query: CN1CCN(c2ncc(F)c(N3CC(C(=O)N(C)C(C)(C)c4cnc5ccccn45)C3)n2)CC1
Out: Not met

In: API: query returns whether the compound falls strictly under 7 nM in IC50. Query: CN1CCCN(c2ncc(F)c(N3CC(C(=O)NCc4cnc5ccccn45)C3)n2)CC1
Out: Not met

* * *

# measurement-description: Rat clearance and bioavailability (iv and oral dosing)
# Assay type: in vivo
# study-conditions: male, Sprague-Dawley, plasma, iv 3 mg/kg, administered as a single compound, read-out: Rat iv t1/2 (converted)
value-kind: half-life (h)
The answer is to be given in h; state only the numeric part.

// below: answered compounds
> print(dat)
                                   compound  endpoint.result
1  CC(C)(NC(=O)C1CN(c2nc(N3CCCNCC3)ncc2F)C1)c1cnc2ccccn12 [Example 11]              4.4
2  O=C(NCc1cnc2ccccn12)C1CN(c2nc(N3CCNCC3)ncc2F)C1 [Example 16]              5.9

Moving on to the next compound.
In: Entry under review: CC(C)(NC(=O)C1CN(c2nc(N3CCCNCC3)ncc2Cl)C1)c1cnc2ccccn12 [Example 51] . Reported half-life?
Out: 9.1

* * *

# System: SU-DHL-10 cells
# measurement-description: Cell cytotoxicity in SU-DHL-10 cell line (CellTiter-Glo)
# Format: cell-based
# study-conditions: Homo sapiens, SU-DHL10; CellTiter-Glo, 48 h; read-out: SU-DHL-10 EC50
value-kind: log10 of EC50 (log10 of the value in nM)
Please interpret these as log10 of EC50 where EC50 is in nM.

In: Entry under review: CN(C(=O)C1CN(c2nc(N3CCNC(C)(C)C3)ncc2Cl)C1)C(C)(C)c1cnc2ccccn12 [Example 127] . Reported log10 of EC50?
Out: 2.78

* * *

# target-of-assay: Human NMT1 (HsNMT1) (Homo sapiens, UniProt P30419)
# Sequence (P30419 whole entry, looked up): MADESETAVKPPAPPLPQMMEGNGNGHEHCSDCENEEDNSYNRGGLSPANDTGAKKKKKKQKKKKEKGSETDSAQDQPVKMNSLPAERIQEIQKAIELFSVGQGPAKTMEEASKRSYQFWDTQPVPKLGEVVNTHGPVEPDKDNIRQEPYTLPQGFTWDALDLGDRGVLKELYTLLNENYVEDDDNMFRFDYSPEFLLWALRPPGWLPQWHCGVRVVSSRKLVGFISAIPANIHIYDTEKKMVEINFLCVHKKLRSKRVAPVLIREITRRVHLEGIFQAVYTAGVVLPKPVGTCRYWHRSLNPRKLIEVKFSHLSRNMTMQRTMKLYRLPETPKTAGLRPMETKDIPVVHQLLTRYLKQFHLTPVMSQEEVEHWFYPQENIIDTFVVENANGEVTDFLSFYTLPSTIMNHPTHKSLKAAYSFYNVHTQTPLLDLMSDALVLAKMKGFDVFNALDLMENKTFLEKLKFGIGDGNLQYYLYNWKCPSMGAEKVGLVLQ
# measurement-description: biochemical
List of pIC50 values.
Please keep in mind that pIC50 is minus log10 of the molar concentration; only the number is needed.

In: Entry under review: COc1cnc(N2CCCNCC2)nc1N1CC(C(=O)NC(C)(C)c2cnc3ccccn23)C1 [Example 20] . Reported pIC50?
Out: 7.80

In: Entry under review: CN(c1ncc(F)c(N2CC(C(=O)NC(C)(C)c3cnc4ccccn34)C2)n1)C1CCNC1 (stereo not shown) [Example 40] . Reported pIC50?
Out: 6.80

In: Entry under review: C[C@H]1CN(c2ncc(Cl)c(N3CC(C(=O)NC(C)(C)c4cnc5ccccn45)C3)n2)[C@@H](C)CN1 [Example 151] . Reported pIC50?
Out: 8.70

In: Entry under review: CN(C(=O)C1CN(c2nc(N3CC4CCC(C3)N4)ncc2Cl)C1)C(C)(C)c1cnc2ccccn12 [Example 133] . Reported pIC50?
Out: 7.21

* * *

# target-of-assay: Plasmodium vivax (Pv) NMT (Plasmodium vivax (strain Salvador I))
# measurement-description: biochemical
pIC50: −log10 of the molar value.
Output TRUE for pIC50 not less than 8; output FALSE otherwise.

> print(dat)
                                   molecule                           target.of.assay  class.assignment
1  C[C@@H]1CN(c2ncc(Cl)c(N3CC(C(=O)NC(C)(C)c4cnc5ccccn45)C3)n2)CCN1C [Example 3]  Plasmodium vivax (Pv) NMT (Plasmodium vivax (strain Salvador I))              TRUE
2  Cc1cnc(N2CCN(C)CC2)nc1N1CC(C(=O)NC(C)(C)c2cnc3ccccn23)C1 [Example 66]  Plasmodium vivax (Pv) NMT (Plasmodium vivax (strain Salvador I))             FALSE
3  O=C(NCc1cnc2ccccn12)C1CN(c2nc(N3CC4CNC4C3)ncc2F)C1 (centres unmarked) [Example 8]  Plasmodium vivax (Pv) NMT (Plasmodium vivax (strain Salvador I))             FALSE

Lab note: next molecule to report on.
In: Given CN(c1ncc(F)c(N2CC(C(=O)NC(C)(C)c3cnc4ccccn34)C2)n1)C1CCNC1 (centres unmarked) [Example 40] , state whether its pIC50 is at least 8.
Out: FALSE
